# procedure text: GAPDH and PEG-3 promoter luciferase suppression – cell-based, luminescence, set 2, counter-screen for PEG-3 promoter inhibitor project, dose response (AID 651549)
# measurement setup: HeLa PEG-Prom-luciferase or GAPDH-reporter, 6/24 h, PEG-3, run 1, 24 h
The source made the active and inactive calls.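 The calls were made as follows: active = compounds blocking the PEG3 reporter with IC50 up to 10 µM at either incubation, yet sparing the GAPDH control reporter; inactive = the rest.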
Mark one answer only. Choices: class 1 (active), class 0 (inactive)

Dear colleague, could you share the recorded outcome for Cc1cccc(NC(=O)c2nc(S(=O)(=O)Cc3ccccc3)ncc2Cl)c1 when you have a moment?
class 0

Tell me the recorded outcome of this test for CC1CC(C)C(=O)C(C(CC2CC(=O)NC(=O)C2)OC(=O)CC(=O)c2ccccc2)C1 (centres undefined) .
class 0

Any idea what this test logged for Cc1ccc2nc(NC(=O)CSCC(=O)OCC(=O)c3ccc(Br)cc3)sc2c1 ?
class 1

Short answer needed: outcome of this test for CC(=O)c1sc2c(c1OC(=O)c1ccc(Cl)cc1Cl)c(=O)n(-c1ccccc1)c(=S)n2-c1ccccc1 ?
class 1
